B1: Androgen receptor, residues 557 to 632; numbered along this chain, P10275 (parent)
chain: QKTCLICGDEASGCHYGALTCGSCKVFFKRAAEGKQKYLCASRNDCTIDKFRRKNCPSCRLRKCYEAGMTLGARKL

- Variants of: B1
- protocol_summary: abundance fitness (aPCA) (normalised: wild type 0, dead -1); higher = more abundant; growth selection in yeast, the domain comes from the species named
- recorded_conditions: Homo sapiens
result_type: abundance fitness
Answers are plain numbers.

Some solved entries appear below for comparison.
C24D | -0.695
V26A | -0.108
T3I | 0.009
I48N | -0.199
C46W | -0.878

Please state, for each entry, its recorded abundance fitness.
1. Y38N
2. G22C
3. K25H
4. L19P
5. C14W
6. A31L

# output
-0.245
-0.064
-0.011
-0.106
-0.419
-0.225
